Reference source: ChEMBL document CHEMBL3137667

// Hepatotoxicity (moderate) lookup, one value per entry
# Cond: human, serum
Returns: the value as a bare number; no unit string appended.

Sample answers from the record:
[
  {
    "Molecule": "Nc1ccc(/N=N/c2ccccc2)c(N)n1",
    "Hepatotoxicity (moderate)": 4
  },
  {
    "Molecule": "C[C@]12Cc3c[nH]nc3C[C@@H]1CC[C@@H]1[C@@H]2CC[C@@]2(C)[C@H]1CC[C@]2(C)O",
    "Hepatotoxicity (moderate)": 6
  },
  {
    "Molecule": "CC[C@H]1OC(=O)[C@H](C)[C@@H](O[C@H]2C[C@@](C)(OC)[C@@H](O)[C@H](C)O2)[C@H](C)[C@@H](O[C@@H]2O[C@H](C)C[C@H](N(C)C)[C@H]2O)[C@](C)(O)C[C@@H](C)CN(C)[C@H](C)[C@@H](O)[C@]1(C)O",
    "Hepatotoxicity (moderate)": 53
  }
]

[in] Recorded Hepatotoxicity (moderate) of CC1CCN(CCCC(=O)c2ccc(F)cc2)CC1 , please.
[out] 2

[in] What value of measured Hepatotoxicity (moderate) is listed for Fc1ccc([C@@H]2CCNC[C@H]2COc2ccc3c(c2)OCO3)cc1 ?
[out] 6

[in] Would you mind telling me what Hepatotoxicity (moderate) value was observed for NC(=O)NC(=O)Cc1ccccc1 [PHENACEMIDE] ?
[out] 1

[in] I have this molecule here, COC(=O)C[C@](O)(CCCC(C)(C)O)C(=O)O[C@@H]1C(OC)=C[C@]23CCCN2CCc2cc4c(cc2[C@H]13)OCO4 [OMACETAXINE MEPESUCCINATE] , and I need its recorded Hepatotoxicity (moderate).
[out] 3

[in] # get_value(readout='Hepatotoxicity (moderate)', item= CC(=O)CCCCn1c(=O)c2c(ncn2C)n(C)c1=O )
[out] 0

[in] Query: Hepatotoxicity (moderate); subject: Clc1ccc2c(c1)C(N1CCNCC1)=Nc1ccccc1O2
[out] 2

[in] Given CN1CCOC(c2ccccc2)c2ccccc2C1 (stereo unspecified) , state its recorded Hepatotoxicity (moderate).
[out] 1

[in] Fill in the blank: the reported Hepatotoxicity (moderate) of CCCCC(C)(O)C/C=C/[C@H]1[C@H](O)CC(=O)[C@@H]1CCCCCCCO (stereo partly specified) is ____.
[out] 1

###

Listed compounds paired with reported Hepatotoxicity (moderate)
# Cond: human, serum
Output spec: single numeric token, no unit.

Some compounds with known Hepatotoxicity (moderate) results, for comparison:
[
  {
    "Compound": "C=CC(N)CCC(=O)O (stereo not drawn) [VIGABATRIN]",
    "Numeric value": 3
  },
  {
    "Compound": "Cc1ccc(O)c2ncccc12 [TILIQUINOL]",
    "Numeric value": 0
  }
]

Field: next compound
[in] Please look up its Hepatotoxicity (moderate): CC1=C(C(=O)O)N2C(=O)[C@@H](NC(=O)[C@H](N)c3ccccc3)[C@H]2SC1 [CEPHALEXIN ANHYDROUS]
[out] 4

###

Measured Hepatotoxicity (acute), listed per entry.
# Cond: human, serum

Observe how each entry below is paired with its result.
[
  {
    "Compound": "CN1C2CCCC1CC(NC(=O)c1nn(C)c3ccccc13)C2 (centres undefined)",
    "Hepatotoxicity (acute)": 0
  },
  {
    "Compound": "CCCCN(CCCC)CCC(O)c1cc2c(Cl)cc(Cl)cc2c2cc(C(F)(F)F)ccc12 (centres undefined)",
    "Hepatotoxicity (acute)": 0
  },
  {
    "Compound": "COc1c2occc2c(OC)c2c(=O)cc(C)oc12",
    "Hepatotoxicity (acute)": 1
  },
  {
    "Compound": "CS(=O)(=O)OCCCCOS(C)(=O)=O",
    "Hepatotoxicity (acute)": 6
  },
  {
    "Compound": "CCN1CCN(C(=O)N[C@@H](C(=O)N[C@@H]2C(=O)N3C(C(=O)O)=C(CSc4nnnn4C)CS[C@H]23)c2ccc(O)cc2)C(=O)C1=O",
    "Hepatotoxicity (acute)": 0
  }
]

[in] Dear colleague, I am looking for the recorded Hepatotoxicity (acute) of the following compound: O=[N+]([O-])c1cc(Cl)cc(-c2cc(Cl)cc([N+](=O)[O-])c2O)c1O
[out] 1

[in] Sample COc1cc2c(cc1OC)C(=O)C(CC1CCN(Cc3ccccc3)CC1)C2 (centres undefined) — what was its Hepatotoxicity (acute)?
[out] 2

[in] For the compound shown here, O=C1CCC(N2C(=O)c3ccccc3C2=O)C(=O)N1 (centres undefined) [THALIDOMIDE] , give the reported Hepatotoxicity (acute).
[out] 2

[in] Look up Hepatotoxicity (acute): NC(=O)CC[C@@H]1NC(=O)[C@H](Cc2ccccc2)NC(=O)[C@H](Cc2ccc(O)cc2)NC(=O)CCSSC[C@@H](C(=O)N2CCC[C@H]2C(=O)N[C@H](CCCN=C(N)N)C(=O)NCC(N)=O)NC(=O)[C@H](CC(N)=O)NC1=O
[out] 0

###

Reported Hepatotoxicity (granulomatous hepatitis) is given for each of the following molecules.
# Cond: human, Liver
Respond numerically, and do not add a unit to the figure.

Worked examples, 5 molecules total:
[
  {
    "Molecule": "CN[C@H]1CC[C@@H](c2ccc(Cl)c(Cl)c2)c2ccccc21",
    "Hepatotoxicity (granulomatous hepatitis)": 0
  },
  {
    "Molecule": "CC(C)n1c(/C=C/C(O)CC(O)CC(=O)O)c(-c2ccc(F)cc2)c2ccccc21 (configuration not stated)",
    "Hepatotoxicity (granulomatous hepatitis)": 0
  },
  {
    "Molecule": "CN(C)CCCn1c2c(c3ccccc31)CCCCCC2",
    "Hepatotoxicity (granulomatous hepatitis)": 0
  },
  {
    "Molecule": "O=C1NS(=O)(=O)c2ccccc21",
    "Hepatotoxicity (granulomatous hepatitis)": 0
  },
  {
    "Molecule": "NC(N)=Nc1nc(CSCCC(N)=NS(N)(=O)=O)cs1",
    "Hepatotoxicity (granulomatous hepatitis)": 0
  }
]

Now consider the entry below.
[in] For the molecule shown here, CNCCCC12CCC(c3ccccc31)c1ccccc12 , give the reported Hepatotoxicity (granulomatous hepatitis).
[out] 0

###

# Cond: human, serum
# Lookup of reported Hepatotoxicity (moderate) keyed by entry

Worked cases, answers included:
[
  {
    "Compound": "COc1ccc2c(c1)N(C[C@H](C)CN(C)C)c1ccccc1S2 [LEVOMEPROMAZINE]",
    "Hepatotoxicity (moderate)": 2
  },
  {
    "Compound": "COc1ccccc1Oc1c(NS(=O)(=O)c2ccc(C(C)(C)C)cc2)nc(-c2ncccn2)nc1OCCO [BOSENTAN]",
    "Hepatotoxicity (moderate)": 12
  }
]

[in] State the recorded Hepatotoxicity (moderate) for this entry: Cc1c(F)c(N2CCNC(C)C2)cc2c1c(=O)c(C(=O)O)cn2C1CC1 (stereo not drawn) [GREPAFLOXACIN]
[out] 22

###

Here the recorded Hepatotoxicity (choleostasis) is given for each entry.
# Cond: human
*1 amine or outer side, *2 acyl side, *3 side chain or, on linkers, in order; H or OH if unused. Where a SMILES comes first, the peptide text is derived from it. Bridges are numbered along the chain shown (N, C = ends). Roman numbers before positions name the chains, in order. [ ]: non-standard residue; d: D form. Actinocin(9to1) = Cc1c2oc3c(C)ccc(C(=O)[*:1])c3nc-2c(C(=O)[*:2])c(N)c1=O; NMeV = CN[C@H](C(=O)O)C(C)C; Sar = CNCC(=O)O
// no unit, no text: just the number

[
  {
    "Molecule": "Cc1oc(=O)oc1COC(=O)[C@@H]1N2C(=O)[C@@H](NC(=O)[C@H](N)c3ccccc3)[C@H]2SC1(C)C",
    "Value kind": "Hepatotoxicity (choleostasis)",
    "Numeric value": 0
  }
]

[in] // query Hepatotoxicity (choleostasis) value for entry Cc1c2oc3c(C)ccc(C(=O)N[C@@H]4C(=O)N[C@H](C(C)C)C(=O)N5CCC[C@H]5C(=O)N(C)CC(=O)N(C)[C@@H](C(C)C)C(=O)O[C@@H]4C)c3nc-2c(C(=O)N[C@@H]2C(=O)N[C@H](C(C)C)C(=O)N3CCC[C@H]3C(=O)N(C)CC(=O)N(C)[C@@H](C(C)C)C(=O)O[C@@H]2C)c(N)c1=O [DACTINOMYCIN] (I: T[dV]P[Sar][NMeV] / II: T[dV]P[Sar][NMeV]; ester I:1-I:C, II:1-II:C; linker I:N-II:N via Actinocin(9to1))
[out] 0

[in] What measured Hepatotoxicity (choleostasis) goes with COC1=C(OC)C(=O)C(CCCCCCCCCCO)=C(C)C1=O ?
[out] 0

###

Each entry below carries its reported Hepatotoxicity (moderate).
# Cond: human, serum
API doc: respond with a numeric literal and nothing else, no unit.

Please review the entries below; each comes with its answer.
[
  {
    "Compound": "N[C@@H](CSCC(=O)O)C(=O)O",
    "Value kind": "Hepatotoxicity (moderate)",
    "Numeric value": 1
  },
  {
    "Compound": "Cc1cccc(C)c1OCC(=O)N[C@@H](Cc1ccccc1)[C@@H](O)C[C@H](Cc1ccccc1)NC(=O)[C@H](C(C)C)N1CCCNC1=O",
    "Value kind": "Hepatotoxicity (moderate)",
    "Numeric value": 1
  },
  {
    "Compound": "CCN1CC(CCN2CCOCC2)C(c2ccccc2)(c2ccccc2)C1=O (configuration not stated)",
    "Value kind": "Hepatotoxicity (moderate)",
    "Numeric value": 1
  }
]

[in] Report Hepatotoxicity (moderate) for CO[C@H]1[C@@H](O)[C@H](N)[C@@H](O[C@H]2O[C@H]([C@H](C)N)CC[C@H]2N)[C@H](O)[C@@H]1N(C)C(=O)CN please.
[out] 1

[in] What Hepatotoxicity (moderate) value was documented for this compound, COC1=C(OC)C(=O)C(CCCCCCCCCCO)=C(C)C1=O ?
[out] 1

[in] Bench note: what Hepatotoxicity (moderate) did CC(=O)c1ccc2c(c1)N(CCCN1CCC(CCO)CC1)c1ccccc1S2 show?
[out] 1

[in] Could you tell me which Hepatotoxicity (moderate) is on file for COc1ccc([C@@H]2Sc3cc(Cl)ccc3N(CCN(C)C)C(=O)[C@@H]2OC(C)=O)cc1 ?
[out] 1

[in] Using the record for CC/C(=C(/CC)c1ccc(OP(=O)(O)O)cc1)c1ccc(OP(=O)(O)O)cc1 [DIETHYLSTILBESTROL DIPHOSPHATE] , report its Hepatotoxicity (moderate).
[out] 1

[in] Item under review: CCOC(=O)c1cncn1[C@H](C)c1ccccc1 [ETOMIDATE] . Reported Hepatotoxicity (moderate)?
[out] 1

[in] # input compound: CO[C@@H](/C(C)=C/C=C/C(C)=C/c1coc(C)n1)[C@@H](C)[C@@H]1C[C@H](O)[C@@]2(C)O[C@@H]2/C=C/[C@@H](C)[C@H]2C[C@H](CC(=O)O2)C[C@@H]2O[C@H]2C(=O)O1 ; wanted: its Hepatotoxicity (moderate)
[out] 1

[in] Recorded Hepatotoxicity (moderate) for O=C(O)c1ccccc1O.O=C(O)c1ccccc1O.O=C(O)c1ccccc1O , please?
[out] 0
